Reported pIC50 is given for each of the following molecules.
- assayedSystem: Proto-oncogene tyrosine-protein kinase ROS (Homo sapiens, UniProt P08922)
- Sequence (P08922 whole entry, the tested form may be a part): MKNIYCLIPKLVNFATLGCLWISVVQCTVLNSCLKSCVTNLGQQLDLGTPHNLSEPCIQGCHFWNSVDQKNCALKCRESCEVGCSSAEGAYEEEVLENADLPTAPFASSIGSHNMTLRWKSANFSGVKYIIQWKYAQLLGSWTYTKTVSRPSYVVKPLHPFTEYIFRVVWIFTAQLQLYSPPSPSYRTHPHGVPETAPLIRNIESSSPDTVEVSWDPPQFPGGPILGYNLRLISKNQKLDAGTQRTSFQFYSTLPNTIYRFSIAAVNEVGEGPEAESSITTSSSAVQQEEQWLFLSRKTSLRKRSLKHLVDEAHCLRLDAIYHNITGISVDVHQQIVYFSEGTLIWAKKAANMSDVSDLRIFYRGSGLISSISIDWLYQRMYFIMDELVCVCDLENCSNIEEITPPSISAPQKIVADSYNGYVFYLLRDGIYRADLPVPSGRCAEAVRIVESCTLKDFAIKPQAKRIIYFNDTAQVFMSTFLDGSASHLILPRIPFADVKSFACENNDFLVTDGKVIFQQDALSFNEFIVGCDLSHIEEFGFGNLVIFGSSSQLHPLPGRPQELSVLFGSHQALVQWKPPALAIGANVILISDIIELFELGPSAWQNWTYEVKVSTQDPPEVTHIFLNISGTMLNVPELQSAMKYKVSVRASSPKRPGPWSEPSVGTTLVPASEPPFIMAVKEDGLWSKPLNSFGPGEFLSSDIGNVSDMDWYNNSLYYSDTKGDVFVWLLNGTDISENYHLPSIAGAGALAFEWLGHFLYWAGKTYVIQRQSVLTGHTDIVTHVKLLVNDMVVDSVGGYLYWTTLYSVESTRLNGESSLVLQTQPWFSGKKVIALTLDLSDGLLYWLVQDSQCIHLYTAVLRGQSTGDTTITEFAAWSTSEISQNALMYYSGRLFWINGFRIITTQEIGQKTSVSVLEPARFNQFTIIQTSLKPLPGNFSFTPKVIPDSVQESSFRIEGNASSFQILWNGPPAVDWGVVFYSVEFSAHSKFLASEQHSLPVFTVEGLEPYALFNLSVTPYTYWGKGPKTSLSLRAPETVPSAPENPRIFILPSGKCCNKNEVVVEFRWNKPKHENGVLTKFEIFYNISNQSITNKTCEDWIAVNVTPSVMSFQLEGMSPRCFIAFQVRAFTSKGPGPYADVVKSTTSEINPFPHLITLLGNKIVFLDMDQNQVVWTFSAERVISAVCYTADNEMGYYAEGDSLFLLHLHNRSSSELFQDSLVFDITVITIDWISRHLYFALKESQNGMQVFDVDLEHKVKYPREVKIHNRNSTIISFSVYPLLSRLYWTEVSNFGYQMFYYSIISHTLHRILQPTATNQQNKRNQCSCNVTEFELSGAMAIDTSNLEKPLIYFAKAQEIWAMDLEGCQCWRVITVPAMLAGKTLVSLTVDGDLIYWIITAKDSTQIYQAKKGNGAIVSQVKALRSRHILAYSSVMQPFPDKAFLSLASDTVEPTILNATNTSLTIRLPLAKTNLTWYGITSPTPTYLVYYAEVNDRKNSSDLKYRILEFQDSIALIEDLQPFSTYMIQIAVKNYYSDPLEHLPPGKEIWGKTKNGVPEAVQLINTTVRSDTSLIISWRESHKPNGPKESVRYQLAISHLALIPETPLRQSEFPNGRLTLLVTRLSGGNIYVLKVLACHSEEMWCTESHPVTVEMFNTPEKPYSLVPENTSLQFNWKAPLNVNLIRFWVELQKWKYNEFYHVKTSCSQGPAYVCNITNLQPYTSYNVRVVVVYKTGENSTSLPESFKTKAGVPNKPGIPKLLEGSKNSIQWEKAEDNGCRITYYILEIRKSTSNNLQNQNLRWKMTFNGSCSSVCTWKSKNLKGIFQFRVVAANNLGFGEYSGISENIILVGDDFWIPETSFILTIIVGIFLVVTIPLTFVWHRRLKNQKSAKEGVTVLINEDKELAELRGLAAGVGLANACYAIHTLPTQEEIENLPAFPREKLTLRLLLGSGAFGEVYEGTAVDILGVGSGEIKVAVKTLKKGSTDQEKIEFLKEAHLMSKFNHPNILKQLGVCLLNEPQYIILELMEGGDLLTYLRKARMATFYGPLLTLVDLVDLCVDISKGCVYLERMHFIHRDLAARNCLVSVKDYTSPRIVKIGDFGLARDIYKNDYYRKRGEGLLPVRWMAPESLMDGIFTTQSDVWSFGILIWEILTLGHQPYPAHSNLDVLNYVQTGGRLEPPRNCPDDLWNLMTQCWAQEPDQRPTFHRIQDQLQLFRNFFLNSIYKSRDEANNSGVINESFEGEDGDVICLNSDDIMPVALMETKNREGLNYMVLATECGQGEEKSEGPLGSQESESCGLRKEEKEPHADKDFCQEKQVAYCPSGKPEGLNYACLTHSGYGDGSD
- testMethodNotes: Inhibition of recombinant human N-terminal GST-tagged ROS1 cytoplasmic domain (1883 to 2347 residues) expressed in baculovirus expression system using peptide substrate after 1 hr by mobility shift assay
pIC50: −log10 of the molar value.
observedProperty: pIC50

[[record]]
moleculesmiles = "CC(C)Oc1cc(-c2nc(CN3CCN(CCO)CC3)cs2)ccc1Nc1ncc(Cl)c(Nc2ccccc2S(=O)(=O)C(C)C)n1"
observedproperty = "pIC50"
observedvalue = 7.87

[[record]]
moleculesmiles = "COc1cc(-c2nc(CN3CCN(C)CC3)cs2)ccc1Nc1ncc(Cl)c(Nc2ccccc2S(=O)(=O)C(C)C)n1"
observedproperty = "pIC50"
observedvalue = 8.01

[[record]]
moleculesmiles = "COc1cc(-n2cc(CN3CCN(C)CC3)nn2)ccc1Nc1ncc(Cl)c(Nc2ccccc2S(=O)(=O)C(C)C)n1"
observedproperty = "pIC50"
observedvalue = 8.96

[[record]]
moleculesmiles = "COc1cc(-n2cc(CN3C[C@@H](C)N[C@@H](C)C3)nn2)ccc1Nc1ncc(Cl)c(Nc2ccccc2S(=O)(=O)C(C)C)n1"
observedproperty = "pIC50"
observedvalue = 8.52

[[record]]
moleculesmiles = "COc1cc(-n2cc(CN3CCC(C)CC3)nn2)ccc1Nc1ncc(Cl)c(Nc2ccccc2S(=O)(=O)C(C)C)n1"
observedproperty = "pIC50"
observedvalue = 8.34

[[record]]
moleculesmiles = "CC(C)Oc1cc(-c2nc(CN3CCN(C)CC3)cs2)ccc1Nc1ncc(Cl)c(Nc2ccccc2S(=O)(=O)C(C)C)n1"
observedproperty = "pIC50"
observedvalue = 7.71

[[record]]
moleculesmiles = "COc1cc(-c2nc(CN3CCC(C)CC3)cs2)ccc1Nc1ncc(Cl)c(Nc2ccccc2S(=O)(=O)C(C)C)n1"
observedproperty = "pIC50"
observedvalue = 8.07

[[record]]
moleculesmiles = "COc1cc(-n2cc(CN3CCNCC3)nn2)ccc1Nc1ncc(Cl)c(Nc2ccccc2S(=O)(=O)C(C)C)n1"
observedproperty = "pIC50"
observedvalue = 8.10

